System: bone marrow-derived primary Mϕ
methodNotes: PGE2-mediated arginase expression in bone marrow-derived primary Mϕ with EP inhibitors
Assay type: cell-based
settings: Mϕ incubated with PGE2 and selective EP inhibitor
measurementType: PGE2-mediated arginase expression

| compound | targetEntity | measurementType | result |
| --- | --- | --- | --- |
| COc1ccc(Br)cc1S(=O)(=O)NC(=O)/C=C/c1ccccc1Cc1ccc2ccccc2c1 [L-798106] | bone marrow-derived primary Mϕ | PGE2-mediated arginase expression | no inhibitory effect |
| CCCCc1nn(-c2ccccc2C(F)(F)F)c(=O)n1Cc1ccc(-c2ccccc2S(=O)(=O)NC(=O)c2sccc2C)cc1 [L-161982] | bone marrow-derived primary Mϕ | PGE2-mediated arginase expression | no inhibitory effect |
| Cc1cc(Cl)ccc1S(=O)(=O)NC[C@H]1C2CCC(CC2)[C@@H]1/C=C\CCCC(=O)O [0N08711] | bone marrow-derived primary Mϕ | PGE2-mediated arginase expression | no inhibitory effect |
